studyTarget: EGFR del19/C797S (Homo sapiens, UniProt P00533, C797S/DEL746-750)
Sequence (P00533 with tags, fused parts or gaps DEL746-750/C797S): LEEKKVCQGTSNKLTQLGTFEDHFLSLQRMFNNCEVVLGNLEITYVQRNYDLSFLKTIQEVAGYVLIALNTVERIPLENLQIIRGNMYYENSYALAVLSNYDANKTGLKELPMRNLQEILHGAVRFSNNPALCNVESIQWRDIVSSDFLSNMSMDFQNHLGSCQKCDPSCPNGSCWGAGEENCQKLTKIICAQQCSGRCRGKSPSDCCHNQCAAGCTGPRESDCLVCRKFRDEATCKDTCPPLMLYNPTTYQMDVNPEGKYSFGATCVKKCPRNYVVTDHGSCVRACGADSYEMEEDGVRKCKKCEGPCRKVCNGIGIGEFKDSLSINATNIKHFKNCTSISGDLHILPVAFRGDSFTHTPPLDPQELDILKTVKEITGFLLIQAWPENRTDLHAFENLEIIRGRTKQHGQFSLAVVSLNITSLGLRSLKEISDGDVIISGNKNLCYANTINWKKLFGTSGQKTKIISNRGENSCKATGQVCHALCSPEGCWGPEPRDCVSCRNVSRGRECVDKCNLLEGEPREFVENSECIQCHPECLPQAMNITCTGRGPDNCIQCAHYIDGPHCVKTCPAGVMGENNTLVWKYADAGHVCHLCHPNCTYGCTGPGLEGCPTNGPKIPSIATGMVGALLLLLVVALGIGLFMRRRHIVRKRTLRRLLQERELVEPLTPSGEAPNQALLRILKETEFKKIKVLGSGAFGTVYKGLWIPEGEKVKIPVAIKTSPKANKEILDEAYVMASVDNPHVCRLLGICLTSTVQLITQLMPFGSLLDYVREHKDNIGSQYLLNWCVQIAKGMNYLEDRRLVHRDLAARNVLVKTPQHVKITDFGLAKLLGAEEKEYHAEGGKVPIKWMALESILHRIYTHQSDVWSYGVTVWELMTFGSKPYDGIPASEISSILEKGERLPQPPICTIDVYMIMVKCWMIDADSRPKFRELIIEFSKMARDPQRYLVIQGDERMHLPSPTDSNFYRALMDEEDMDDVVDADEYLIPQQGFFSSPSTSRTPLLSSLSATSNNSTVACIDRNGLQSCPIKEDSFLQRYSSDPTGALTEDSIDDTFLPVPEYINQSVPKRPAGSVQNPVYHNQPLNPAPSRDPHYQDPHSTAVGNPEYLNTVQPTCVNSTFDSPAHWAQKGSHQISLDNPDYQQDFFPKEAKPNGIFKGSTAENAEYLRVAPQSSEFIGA
assayRemarks: Biochemical EGFR kinase assay (Lance Ultra TR-FRET), double mutant del19/C797S
measurementParameters: Km ATP; read-out: IC50 del19/C797S (nM) Km ATP
Quick reference: IC50 of the listed items.
Your answer should be a plain number; it is taken to be in nM.

Guide cases for IC50, answers given:
# compound, IC50, nM
measured = [
    ("O=S(=O)(C1CC1)n1cc(-c2nccc(Nc3cc(NC[C@H]4CC[C@@H](O)C4)c(-c4ccn(C(F)F)n4)cn3)n2)cn1 [Example 119]", 0.5),
    ("Cn1nc(-c2cnc(Nc3ccnc(-c4cnn(S(=O)(=O)C5CC5)c4)n3)cc2N[C@H]2CC[C@@H](C(C)(C)O)CC2)cc1C(F)(F)F [Example 254]", 5.5),
    ("COCCn1cc(-c2nccc(Nc3cc(N[C@H]4CC[C@@](C)(O)CC4)c(-c4ccn(C(F)F)n4)cn3)n2)cn1 [Example 138]", 45.1),
    ("O=S(=O)(C1CC1)n1cc(-c2nccc(Nc3cc(N[C@H]4CC[C@@H](CCO)CC4)c(-c4ccn(C(F)F)n4)cn3)n2)cn1 [Example 135]", 0.7),
    ("O=S(=O)(C1CC1)n1cc(-c2nccc(Nc3cc(N[C@H]4CC[C@@H](CCO)CC4)c(-c4ccn(CC(F)(F)F)n4)cn3)n2)cn1 [Example 269]", 1.3),
]

Shifting focus to the compound that follows.
Task: Give the measured IC50 of CN1CCC(n2ccc(-c3cnc(Nc4ccnc(-c5cnn(S(=O)(=O)C6CC6)c5)n4)cc3N[C@H]3CC[C@@](C)(O)CC3)n2)CC1 [Example 287] .
Result: 0.3
